- TEST_SYSTEM: cIAP1-BIR2 (Homo sapiens (Human), UniProt Q13490)
- Sequence (Q13490 173-257): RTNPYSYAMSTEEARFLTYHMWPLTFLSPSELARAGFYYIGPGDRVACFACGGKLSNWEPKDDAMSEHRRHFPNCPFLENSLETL
- TEST_SUMMARY: BIR binding assay (FRET competition), cIAP1 BIR2
Below: a set of entries, each annotated with reported IC50.

These solved cases illustrate the format of a correct answer.
COMPOUND	RESULT
C[C@@H]1CN(CC(=O)N2CC(C)(C)c3[nH]c(=O)c(Cc4ccc(F)cc4)cc32)[C@@H](CN2CCO[C@H](COc3cccc(OC[C@@H]4CN(C[C@H]5CN[C@H](C)CN5CC(=O)N5CC(C)(C)c6[nH]c(=O)c(Cc7ccc(F)cc7)cc65)CCO4)c3Br)C2)CN1 [Example 87]	1 to 3.16 µM
C[C@@H]1CN(CC(=O)N2CC(C)(C)c3[nH]c(=O)c(Cc4ccc(C(F)F)cc4)cc32)[C@@H](CN2CCO[C@H](C(=O)NCc3ccc(CNC(=O)[C@@H]4CN(C[C@H]5CN[C@H](C)CN5CC(=O)N5CC(C)(C)c6[nH]c(=O)c(Cc7ccc(C(F)F)cc7)cc65)CCO4)cc3)C2)CN1 [Compound 166]	0.0224 to 1 µM
C[C@@H]1CN(CC(=O)N2CC(C)(C)c3c2cc(Cc2ccc(F)cc2)c(=O)n3C)[C@@H](CN2CCO[C@H](COCC#CC#CCOC[C@@H]3CN(C[C@H]4CN[C@H](C)CN4CC(=O)N4CC(C)(C)c5c4cc(Cc4ccc(F)cc4)c(=O)n5C)CCO3)C2)CN1 [Example 116]	3.16 to 10 µM

# input for lookup
Task item: Find IC50 for C[C@@H]1CN(CC(=O)N2CC(C)(C)c3[nH]c(=O)c(Cc4ccc(F)cc4)cc32)[C@@H](CN2CCO[C@H](COCCCCCCOC[C@@H]3CN(C[C@H]4CN[C@H](C)CN4CC(=O)N4CC(C)(C)c5[nH]c(=O)c(Cc6ccc(F)cc6)cc54)CCO3)C2)CN1 [Example 64] on cIAP1-BIR2 (Homo sapiens (Human), UniProt Q13490) and write it down.
Reply: 10 to 51.3 µM

###

- TEST_SYSTEM: XIAP-BIR2 (Homo sapiens (Human))
- Sequence (P98170 124-240): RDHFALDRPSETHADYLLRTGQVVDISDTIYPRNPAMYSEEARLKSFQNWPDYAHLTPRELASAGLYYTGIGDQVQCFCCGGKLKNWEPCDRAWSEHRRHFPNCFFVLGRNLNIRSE
- TEST_SUMMARY: BIR binding assay (FRET competition), XIAP BIR2
- MEASUREMENT_SETUP: FRET competition binding
READOUT_NAME: XIAP BIR2 (pIC50)

COMPOUND_STRUCTURE_STRING	TEST_SYSTEM	RESULT
C[C@@H]1CN(CC(=O)N2CC(C)(C)c3[nH]c(=O)c(Cc4ccc(F)cc4)cc32)[C@@H](CN2CCN(C(=O)c3ccc(C(=O)N4CCN(C[C@H]5CN[C@H](C)CN5CC(=O)N5CC(C)(C)c6[nH]c(=O)c(Cc7ccc(F)cc7)cc65)[C@H](C)C4)cc3)C[C@H]2C)CN1	XIAP-BIR2 (Homo sapiens (Human))	+ (4.29<pIC50<=5.00)
C[C@@H]1CN(CC(=O)N2CC(C)(C)c3[nH]c(=O)c(Cc4ccc(F)cc4)cc32)[C@@H](CN2CCC[C@H](NC(=O)Cc3ccc(CC(=O)N[C@H]4CCCN(C[C@H]5CN[C@H](C)CN5CC(=O)N5CC(C)(C)c6[nH]c(=O)c(Cc7ccc(F)cc7)cc65)C4)cc3)C2)CN1	XIAP-BIR2 (Homo sapiens (Human))	+ (4.29<pIC50<=5.00)
C[C@@H]1CN(CC(=O)N2CC(C)(C)c3[nH]c(=O)c(Cc4ccc(F)cc4)cc32)[C@@H](CN2CCC[C@@H](NC(=O)CCCCCCC(=O)N[C@@H]3CCCN(C[C@H]4CN[C@H](C)CN4CC(=O)N4CC(C)(C)c5[nH]c(=O)c(Cc6ccc(F)cc6)cc54)C3)C2)CN1	XIAP-BIR2 (Homo sapiens (Human))	+ (4.29<pIC50<=5.00)
